- Read-out: Monokine induced gamma interferon (MIG), CXCL9 (gene 4283)
- protocol summary: BSK_hDFCGF_MIG: BioMAP Diversity Plus: hDFCGF Assay for Monokine induced gamma interferon (MIG) Biomarker Activity (AID 2283063)
- condition label: primary human foreskin fibroblasts; actives raise or lower the signal
- Protocol: BSK_hDFCGF is a cell-based, multiplexed-readout assay that uses foreskin fibroblast, a human skin primary cell, with measurements taken at 24 hours after chemical dosing in a 96-well plate.BSK_hDFCGF_MIG is an assay component measured in the BSK_hDFCGF assay. It measures MIG antibody related to regulation of gene expression using ELISA technology.Data from the assay component BSK_hDFCGF_MIG was analyzed into 1 assay endpoint. […]
Activity calls are given as the source filed them. Rule for the calls: active = hit-call score of the fitted dose curve at least 0.9, where 1 is the maximum; inactive = score below 0.9.
# output must be one of active, inactive

>>> print(df.to_string())
                                   compound  class_assignment
0    COC(=O)c1c(Cl)c(Cl)c(C(=O)OC)c(Cl)c1Cl          inactive
1                              COCCOCCOCCOC          inactive
2  CCCCC(CC)COC(=O)CCCCCCCCC(=O)OCC(CC)CCCC (stereo not drawn)          inactive
3  COc1ccc2sc(C(=O)Nc3nnn[nH]3)c(OC(C)C)c2c1            active
4  CCCCC(CC)COC(=O)c1ccc(C(=O)OCC(CC)CCCC)cc1 (stereo not drawn)          inactive
5  O=C(O)CCN(C1(C(=O)NO)CCCC1)S(=O)(=O)c1ccc(Oc2ccc(F)cc2)cc1          inactive
6                               CCNc1ccccc1          inactive

Request: Test call, this compound: CCCC(=O)OCC
Response: inactive

====

- Read-out: Cytochrome P450 7A1 (Homo sapiens) (UniProt P22680)
- protocol summary: LTEA_HepaRG_CYP7A1: Life Technologies and Expression Analysis (LTEA) Assay for Cytochrome P450 7A1 (CYP7A1) using HepaRG (AID 2283496)
- condition label: mRNA level, 48 h; actives raise or lower the signal
Calls of active or inactive are those of the source. The calls were made as follows: active = hit-call score of the fitted dose curve at least 0.9, where 1 is the maximum; inactive = score below 0.9.
Output constraint: value belongs to active, inactive

// below: answered compounds
>>> print(df.to_string())
     chemical_smiles  class_assignment
0  C=CCCCCCCCCC(=O)O          inactive
1        CCCC(=O)OCC          inactive

Request: Could you please tell me the result logged for CCOC(=O)CC(CC(=O)OCC)(OC(C)=O)C(=O)OCC in this assay?
Response: inactive

Request: Test call for this compound, please: CCCN(C1CCN(C(=O)C2CCNCC2)CC1)[C@@H]1CCc2ccc(OC)cc2C1
Response: active

Request: Please indicate how the test categorized CCc1cc(SCc2sc(-c3ccc(C(F)(F)F)cc3)nc2CN2CCN(c3ccc(OC)cc3)CC2)ccc1OCC(=O)O .
Response: active

Request: Per the records of this test, what outcome belongs to CC(C)=CCCC(C)=CC=O ?
Response: inactive

====

- Read-out: Cytochrome P450 4A22 (Homo sapiens)
- protocol summary: LTEA_HepaRG_CYP4A22: Life Technologies and Expression Analysis (LTEA) Assay for Cytochrome P450 4A22 (CYP4A22) using HepaRG (AID 2283495)
- condition label: mRNA level, 48 h; actives raise or lower the signal
Activity calls are given as the source filed them. The calls were made as follows: active = hit-call score of the fitted dose curve at least 0.9, where 1 is the maximum; inactive = score below 0.9.
Outcomes you can answer with include only these: 1.0 for active, 0.0 for inactive

For orientation, consider the following solved cases.
>>> df
                                   compound  class_assignment
0                   Oc1ccc2c(c1)-c1ccccc1C2               0.0
1                              Nc1cccc(N)c1               0.0
2  O=C1CCC(N2C(=O)c3ccccc3C2=O)C(=O)N1 (configuration not stated)               0.0
3    CCOC(=O)CC(CC(=O)OCC)(OC(C)=O)C(=O)OCC               0.0
4  CCn1nc(Cc2ccccc2)cc1C1CCN(C[C@H]2C[C@H](N(C)[C@@H](C(=O)O)C(C)C)C[C@@H]2c2cccc(F)c2)CC1               1.0
5  CCCCC(CC)COC(=O)CCCCCCCCC(=O)OCC(CC)CCCC (configuration not stated)               0.0

# evaluate next
Request: Per the records of this test, what outcome belongs to COc1cccc(-c2ccc(/C=C\CN3CCCCCC3)cc2Cl)c1 ?
Response: 1.0
